# Assay target: hGPR120 (Homo sapiens)
# Construct: expressed in transfected cells; host or cells: CHO-K1
# Procedure text: Measurement of activity of GPR120 agonist (cell-based calcium fluorescence assay)
# Test parameters: CHO-K1 cells expressing Ga16 and hGPR120, Calcium 5 dye fluorescence; activity class; read-out: EC50
So I've got a bunch of compounds here, and I need their EC50 values.

// solved cases for EC50 follow
>>> print(df.to_string())
                                   compound     test_result
0  CC(C)Sc1ncccc1-c1cc(F)c(OCCCCC(=O)O)c(F)c1 [Example 235]        < 200 nM
1  CCCOc1ncccc1-c1cc(F)c(SCCCC(=O)O)c(F)c1 [Example 139]        < 200 nM
2  O=C(O)CCCCOc1c(F)cc(-c2cccnc2OC2CCOCC2)cc1F [Example 241]  200 to 2000 nM
3  O=C(O)CCCOc1ccc(-c2ccccc2Oc2ccccc2)cc1 [Example 37]        < 200 nM

Exercise: What does the record list as EC50 for CC(C)Sc1cccc(-c2ccc(OCCCC(=O)O)c(F)c2)n1 [Example 5] ?
Solution: 200 to 2000 nM

---

# Assay target: hGPR120 (Homo sapiens, UniProt Q5NUL3)
# Construct: expressed in transfected cells; host or cells: CHO-K1
# Sequence (Q5NUL3 1-361): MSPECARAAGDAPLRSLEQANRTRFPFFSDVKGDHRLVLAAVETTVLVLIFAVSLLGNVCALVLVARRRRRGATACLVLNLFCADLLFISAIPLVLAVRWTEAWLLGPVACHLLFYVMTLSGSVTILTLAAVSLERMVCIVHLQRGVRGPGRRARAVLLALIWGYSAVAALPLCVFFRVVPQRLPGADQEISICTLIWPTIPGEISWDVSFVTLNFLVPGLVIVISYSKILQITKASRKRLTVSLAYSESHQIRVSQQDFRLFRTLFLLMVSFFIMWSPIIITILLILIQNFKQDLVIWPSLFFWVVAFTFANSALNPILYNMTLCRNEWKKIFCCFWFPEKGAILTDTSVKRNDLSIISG
# Procedure text: Measurement of activity of GPR120 agonist (cell-based calcium fluorescence assay)
# Test parameters: CHO-K1 cells expressing Ga16 and hGPR120, Calcium 5 dye fluorescence; activity class; read-out: EC50
Could you please report measured EC50 for the items listed next?

                                   compound     test_result
0  CC(C)Sc1cc(-c2cc(F)c(OCCCC(=O)O)c(F)c2)ccn1      > 20000 nM
1   Cc1cc(-c2cccc(OC3CCC3)n2)ccc1OCCCC(=O)O        < 200 nM
2  C[C@H](CCC(=O)O)Oc1c(F)cc(-c2cccc(Oc3ccccc3)c2)cc1F        < 200 nM
3  Cc1ccc(OC2CCCC2)c(-c2ccc(SCCCC(=O)O)c(F)c2)c1F  200 to 2000 nM
4   O=C(O)CCCCOc1ccc(-c2cccnc2OC2CCCC2)cc1F        < 200 nM
5  O=C(O)CCCCCOc1c(F)cc(-c2cccnc2SC2CCC2)cc1F        < 200 nM
6  O=C(O)CCCSc1c(F)cc(-c2cccnc2NC2CCCC2)cc1F        < 200 nM
7  O=C(O)CCCOc1c(F)cc(-c2ccccc2NC2CCCC2)cc1F        < 200 nM
8  Cc1cc(F)c(OC(C)C)c(-c2ccc(SCCCC(=O)O)c(F)c2)c1        < 200 nM
9  O=C(O)CCCOc1c(F)cc(-c2ccccc2NCC2CC2)cc1F        < 200 nM

# batch size: 3; output EC50 per entry
1. CC(CCC(=O)O)Sc1c(F)cc(-c2cccnc2SC2CCCC2)cc1F (stereo not shown)
2. CC(CCC(=O)O)Oc1c(F)cc(-c2cccnc2SC2CCC2)cc1F (stereo not shown)
3. O=C(O)CCCSc1c(F)cc(-c2cccnc2OCC(F)(F)F)cc1F

Solution:
1: < 200 nM; 2: < 200 nM; 3: < 200 nM

The following compounds each have a reported value; give each one's EC50.
1. CCCOc1ccc(-c2ccc(SCCCC(=O)O)c(F)c2)c(OCCC)c1
2. O=C(O)CCCSc1ccc(-c2cc(F)ccc2OC2CCCC2)cc1F
3. O=C(O)CCCSc1ccc(-c2cccnc2SC2CCCC2)cc1
4. O=C(O)CCCOc1c(F)cc(-c2cccnc2N2CCC(F)(F)C2)cc1F
5. O=C(O)CCCSc1ccc(-c2cccnc2OCC2CC2)cc1
6. CC(C)Nc1ccccc1-c1cc(F)c(SCCCC(=O)O)c(F)c1

Solution:
2000 to 20000 nM
200 to 2000 nM
< 200 nM
200 to 2000 nM
200 to 2000 nM
< 200 nM

Please look at the items below and tell me EC50 for each one, in order.
1. Cc1ccc(OC2CCCC2)c(-c2ccc(SCCCC(=O)O)cc2)c1
2. CC(C)Oc1cccc(-c2cc(F)c(SCCCC(=O)O)c(F)c2)n1

Solution:
1. 200 to 2000 nM
2. < 200 nM

Exercise: Requested read-out EC50, target or system hGPR120 (Homo sapiens, UniProt Q5NUL3), entry O=C(O)CCCOc1ccc(-c2cccc(OC3CCC3)n2)cc1C(F)(F)F
Solution: < 200 nM

---

# Assay target: hGPR120 (Homo sapiens)
# Construct: expressed in transfected cells; host or cells: CHO-K1
# Procedure text: Measurement of activity of GPR120 agonist (cell-based calcium fluorescence assay)
# Test parameters: CHO-K1 cells expressing Ga16 and hGPR120, Calcium 5 dye fluorescence; activity class; read-out: EC50
# Experimental: CHO-K1 cells expressing Ga16 and hGPR120 were dispensed into each well of a 96-well plate (3×10^4 cells/100 μl/well) and then incubated in 5% CO2, 37° C. incubator for 18 hours. […] Fluorescence increased by the serially diluted GPR120 agonists is calculated as a relative percent (%) value based on the fluorescence represented by the treatment of 1% DMSO only. […]
pEC50: −log10 of the molar value.
Attribute measured: pEC50

>>> df
                            compound_smiles  attribute_measured   test_result
0  CC(C)Oc1ccccc1-c1cc(F)c(OCCCC(=O)O)c(F)c1               pEC50  5.70 to 6.70
1  O=C(O)CCCSc1c(F)cc(-c2cccc(OC3CCC3)c2)cc1F               pEC50        > 6.70

Exercise: Lab note: need pEC50 with hGPR120 (Homo sapiens) for entry O=C(O)CCCOc1c(F)cc(-c2cccnc2OC2CCCC2)cc1F , please look it up.
Solution: > 6.70

---

# Assay target: hGPR120 (Homo sapiens, UniProt Q5NUL3)
# Construct: expressed in transfected cells; host or cells: CHO-K1
# Sequence (Q5NUL3 1-361): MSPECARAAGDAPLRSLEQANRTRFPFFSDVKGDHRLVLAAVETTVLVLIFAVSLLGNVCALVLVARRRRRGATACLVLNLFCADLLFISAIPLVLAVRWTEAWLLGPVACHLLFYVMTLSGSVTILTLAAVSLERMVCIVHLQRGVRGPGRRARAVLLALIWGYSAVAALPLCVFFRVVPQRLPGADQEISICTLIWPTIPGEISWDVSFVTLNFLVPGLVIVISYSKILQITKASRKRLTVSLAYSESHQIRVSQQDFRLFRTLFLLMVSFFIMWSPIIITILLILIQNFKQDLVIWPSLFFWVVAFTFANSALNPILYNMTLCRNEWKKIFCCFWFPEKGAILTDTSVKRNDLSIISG
# Procedure text: Measurement of activity of GPR120 agonist (cell-based calcium fluorescence assay)
# Test parameters: CHO-K1 cells expressing Ga16 and hGPR120, Calcium 5 dye fluorescence; activity class; read-out: EC50
pEC50: −log10 of the molar value.
Attribute measured: pEC50

Answered examples (5):
>>> df
                                   compound                            assay_target  attribute_measured   test_result
0  O=C(O)CCCCCOc1c(F)cc(-c2cccnc2SC2CCCC2)cc1F  hGPR120 (Homo sapiens, UniProt Q5NUL3)               pEC50  5.70 to 6.70
1  COc1ccc(-c2ccc(SCCCC(=O)O)c(F)c2)c(OC(C)C)c1  hGPR120 (Homo sapiens, UniProt Q5NUL3)               pEC50        > 6.70
2  CC(C)(C)COc1ncccc1-c1cc(F)c(OCCCC(=O)O)c(F)c1  hGPR120 (Homo sapiens, UniProt Q5NUL3)               pEC50  5.70 to 6.70
3  O=C(O)CCCOc1c(F)cc(-c2cccc(N3CCCC3)n2)cc1F  hGPR120 (Homo sapiens, UniProt Q5NUL3)               pEC50        > 6.70
4    CCSc1ncccc1-c1cc(F)c(OCCCC(=O)O)c(F)c1  hGPR120 (Homo sapiens, UniProt Q5NUL3)               pEC50        > 6.70

# batch size: 8; output pEC50 per entry
1. O=C(O)CCCOc1c(F)cc(-c2cccnc2SCC2CC2)cc1F
2. O=C(O)CCCOc1c(F)cc(-c2cccc(N3CCCCC3)n2)cc1F
3. CN1CCN(c2ncccc2-c2cc(F)c(OCCCC(=O)O)c(F)c2)CC1
4. CC(C)Nc1ncccc1-c1cc(F)c(OCCCC(=O)O)c(F)c1
5. CC(CCC(=O)O)Oc1c(F)cc(-c2cccc(OC3CCC3)n2)cc1F (stereo not shown)
6. O=C(O)CCCOc1c(F)cc(-c2cccc(OCC3CC3)n2)cc1F
7. O=C(O)CCCOc1c(F)cc(-c2cccnc2NCC2CC2)cc1F
8. O=C(O)CCCCCSc1c(F)cc(-c2cccnc2SC2CCCC2)cc1F

Solution:
["> 6.70", "5.70 to 6.70", "< 4.70", "5.70 to 6.70", "> 6.70", "> 6.70", "5.70 to 6.70", "5.70 to 6.70"]

Report pEC50 for each item below.
1. CC(C)Sc1ncccc1-c1cc(F)c(OCCCC(=O)O)c(F)c1
2. O=C(O)CCCOc1ccc(-c2ccccc2NCC2CC2)cc1
3. O=C(O)CCCSc1ccc(-c2cccc(OC3CCC3)n2)cc1
4. O=C(O)CCCSc1ccc(-c2cccnc2OC2CCCC2)cc1

Solution:
1: 5.70 to 6.70; 2: 5.70 to 6.70; 3: > 6.70; 4: > 6.70

Could you tell me pEC50 for each of these compounds? They are listed below.
1. CC1(COc2ncccc2-c2cc(F)c(OCCCC(=O)O)c(F)c2)COC1
2. O=C(O)CCCCSc1c(F)cc(-c2cccnc2OC2CCCC2)cc1F

Solution:
1. < 4.70
2. > 6.70

Where do these numbers come from? They come from patent US10221138B2.
